Tested on: T cells isolated from mouse spleens
Method summary: T cell proliferation inhibition (CFSE flow cytometry, anti-CD3/anti-CD28 stimulation)
Type: cell-based
Study conditions: compound 50 μM, mouse spleen T cells, 3 days
Readout: Proliferation inhibition rate (%)
Give the value, in units of %, as a plain number.

A selection of reference data follows.
[[record]]
compound = "CC1CN(C)C(CCCCCCCCCCCCNc2ccc3cncnc3n2)N1 (stereo not shown)"
system = "T cells isolated from mouse spleens"
observed = 100.00

[[record]]
compound = "Nc1ncccc1C(=O)NCCCCCCCCCCCCN1CCS(=O)(=O)CC1"
system = "T cells isolated from mouse spleens"
observed = 100.00

[[record]]
compound = "CN1CCN(CCCCCCCCCCCCNC(=O)c2cccnc2F)CC1"
system = "T cells isolated from mouse spleens"
observed = 100.00

[[record]]
compound = "Nc1ncccc1C(=O)NCCCCCCCCCCCCN1CCC(F)C1 (stereo not shown)"
system = "T cells isolated from mouse spleens"
observed = 100.00


Suppose we examine the compound COC1CCN(CCCCCCCCCCCCNC(=O)c2cccnc2N)C1 (stereo not shown) ; what Proliferation inhibition rate (%) value has been reported?
100.00

Suppose we examine the compound CC1CNCCN1CCCCCCCCCCCCNC(=O)c1cccnc1N (stereo not shown) ; what Proliferation inhibition rate (%) value has been reported?
100.00

###

Measured viability at 10 µM values are reported for all entries that follow.
Tested on: Human B Lymphocyte cell line, SU-DHL-8
Method summary: Relative cell viability CCK-8, SU-DHL-8
Format: cell-based
Study conditions: Homo sapiens, SU-DHL-8, 48 h, read-out: Relative cell viability (%), SU-DHL-8, 10 μM; 48 hours; untreated (DMSO) = 100%

A selection of reference data follows.
[[record]]
compound = "COc1cc2c(cc1OC)CN(CCCCCCCCCCCCNC(=O)c1cccnc1N)CC2"
observed = "42.6%"

[[record]]
compound = "Nc1ncccc1C(=O)NCCCCCCCCCCCCN1CC2CCCC2C1 (stereo not shown)"
observed = "2.44%"

[[record]]
compound = "O=C(NCCCCCCCCCCCCF)c1ncccc1O"
observed = "14.1%"

[[record]]
compound = "CN(C)C1CCCCN(CCCCCCCCCCCCNC(=O)c2cccnc2N)C1 (stereo not shown)"
observed = "1.27%"

[[record]]
compound = "Nc1ncccc1C(=O)NCCCCCCCCCCCCN1CCC(c2ccc([N+](=O)[O-])cc2)CC1"
observed = "4.91%"


Query compound follows.
Suppose we examine the compound O=C(NCCCCCCCCCCCCN1CCN2CCCC2C1)c1cccnc1 (stereo not shown) ; what viability at 10 µM value has been reported?
15.7%

###

Tested on: Human B Lymphocyte cell line, SU-DHL-8
Method summary: Relative cell viability CCK-8, SU-DHL-8
Format: cell-based
Study conditions: 1 μM; 48 hours; untreated (DMSO) = 100%
Measured Relative cell viability (%), SU-DHL-8 values are reported for all entries that follow.
Give the value, in units of %, as a plain number.

[[record]]
molecule = "Nc1ncccc1C(=O)NCCCCCCCCCCCCN1CCC(F)C1 (stereo not drawn)"
readout = "Relative cell viability (%), SU-DHL-8"
unit_abbrev = "%"
observed = 1.70


Suppose we examine the molecule CC(C)(C)OC(=O)N[C@H]1CCN(CCCCCCCCCCCCNC(=O)c2cccnc2N)C1 ; what Relative cell viability (%), SU-DHL-8 value has been reported?
8.93

Suppose we examine the molecule Nc1ncccc1C(=O)NCCCCCCCCCCCCN1CCN(CCO)CC1 ; what Relative cell viability (%), SU-DHL-8 value has been reported?
6.42

Suppose we examine the molecule CC1CCN(CCCCCCCCCCCCNC(=O)c2cccnc2N)C1 (stereo not drawn) ; what Relative cell viability (%), SU-DHL-8 value has been reported?
8.38

Suppose we examine the molecule Nc1ncccc1C(=O)NCCCCCCCCCCCCN1CCS(=O)(=O)CC1 ; what Relative cell viability (%), SU-DHL-8 value has been reported?
9.73

Suppose we examine the molecule CC1(C)CCN(CCCCCCCCCCCCNC(=O)c2cccnc2N)C1 ; what Relative cell viability (%), SU-DHL-8 value has been reported?
6.46

Suppose we examine the molecule Cl.Nc1ncccc1C(=O)NCCCCCCCCCCCCF ; what Relative cell viability (%), SU-DHL-8 value has been reported?
27.80

Suppose we examine the molecule CC1CN(C)C(CCCCCCCCCCCCNc2ccc3cncnc3n2)N1 (stereo not drawn) ; what Relative cell viability (%), SU-DHL-8 value has been reported?
22.61

Suppose we examine the molecule CN1CCN(CCCCCCCCCCCCNC(=O)c2cccnc2F)CC1 ; what Relative cell viability (%), SU-DHL-8 value has been reported?
34.89

###

Measured viability at 30 µM values are reported for all entries that follow.
Tested on: Human B Lymphocyte cell line, SU-DHL-8
Method summary: Relative cell viability CCK-8, SU-DHL-8
Type: cell-based
Study conditions: Homo sapiens, SU-DHL-8, 48 h, read-out: Relative cell viability (%), SU-DHL-8, 30 μM; 48 hours; untreated (DMSO) = 100%
Give the value, in units of %, as a plain number.

A selection of reference data follows.
[[record]]
compound = "Nc1ncccc1C(=O)NCCCCCCCCCCCCN1CCCC1"
observed = 4.89

[[record]]
compound = "Nc1ncccc1C(=O)NCCCCCCCCF [Compound 61, 2-Amino-N-(8-fluoro-octyl)-nicotinamide]"
observed = 42

[[record]]
compound = "CC1CN(C(=O)OC(C)(C)C)C(C)CN1CCCCCCCCCCCCNC(=O)c1cccnc1N (centres unmarked)"
observed = 1.86

[[record]]
compound = "Nc1ncccc1C(=O)NCCCCCCCCCCCCN1CC2CCCC2C1 (centres unmarked)"
observed = 2.08

[[record]]
compound = "O=C(NCCCCCCCCCCCCN1CCN2CCCC2C1)c1cccnc1 (centres unmarked)"
observed = 9.17

[[record]]
compound = "COc1cc2c(cc1OC)CN(CCCCCCCCCCCCNC(=O)c1cccnc1N)CC2"
observed = 42

[[record]]
compound = "Nc1ncccc1C(=O)NCCCCCCCCCCN1CCOCC1"
observed = 29.1


Query compound follows.
Suppose we examine the compound COc1ccc(CN2CCN(CCCCCCCCCCCCNC(=O)c3cccnc3N)CC2)cc1 ; what viability at 30 µM value has been reported?
0.33

###

Test system: Human B Lymphocyte cell line, SU-DHL-8
Method summary: Relative cell viability CCK-8, SU-DHL-8
Type: cell-based
Study conditions: human, 48 h, 30 µM
Readout: Relative cell viability (%), SU-DHL-8
Give the value, in units of %, as a plain number.

A selection of reference data follows.
[[record]]
molecule = "Nc1ncccc1C(=O)NCCCCCCCCCCF [Compound 68, 2-Amino-N-(10-fluoro-decyl)-nicotinamide]"
observed = "−2.90"

[[record]]
molecule = "Nc1ncccc1C(=O)NCCCCCCCCCCCCN1CCNCC1 [Compound 14]"
observed = 1.16

[[record]]
molecule = "Cl.Nc1ncccc1C(=O)NCCCCCCCCCCCF"
observed = 2.04


Query molecule follows.
Suppose we examine the molecule Nc1ncccc1C(=O)NCCCCCCCCCCCCN1CCNCC1 [Compound 5] ; what Relative cell viability (%), SU-DHL-8 value has been reported?
4.63

###

Test system: Human B Lymphocyte cell line, SU-DHL-8
Method summary: Relative cell viability CCK-8, SU-DHL-8
Assay type: cell-based
Study conditions: 30 μM; 48 hours; untreated (DMSO) = 100%
Measured Relative cell viability (%), SU-DHL-8 values are reported for all entries that follow.
Give the value, in units of %, as a plain number.

[[record]]
compound = "CC1CNCCN1CCCCCCCCCCCCNC(=O)c1cccnc1N (stereo not drawn) [Compound 35]"
observed = 0.42

[[record]]
compound = "CN1CCN(CCCCCCCCCCCCNC(=O)c2cccnc2F)CC1 [Compound 121]"
observed = 29.04

[[record]]
compound = "CC1CCN(CCCCCCCCCCCCNC(=O)c2cccnc2N)C1 (stereo not drawn) [Compound 24]"
observed = 0.62


Suppose we examine the compound CC1CN(CCCCCCCCCCCCNC(=O)c2cccnc2N)CC(C)O1 (stereo not drawn) [Compound 21] ; what Relative cell viability (%), SU-DHL-8 value has been reported?
3.70

Suppose we examine the compound Nc1ncccc1C(=O)NCCCCCCCCCCCCF [Compound 57] ; what Relative cell viability (%), SU-DHL-8 value has been reported?
15.63

###

Measured viability at 1 µM values are reported for all entries that follow.
Tested on: Human Pancreas Adenocarcinoma cell line, AsPC-1
Method summary: Relative cell viability CCK-8, AsPC-1
Type: cell-based
Study conditions: ASPC1, 1 μM, 48 hours
Give the value, in units of %, as a plain number.

[[record]]
compound = "Nc1ncccc1C(=O)NCCCCCCCCCCCCN1CCc2ccccc21"
readout = "viability at 1 µM"
observed = 30.3


Suppose we examine the compound Nc1ncccc1C(=O)NCCCCCCCCCCCCN1CCSC1 ; what viability at 1 µM value has been reported?
40.8

Suppose we examine the compound Nc1nc(NC(=O)CCCCCCCCCCCCN2CCN(CCO)CC2)nc2nc[nH]c12 ; what viability at 1 µM value has been reported?
40.9

Suppose we examine the compound Nc1ncccc1C(=O)NCCCCCCCCCCCCN1CCNCC1 ; what viability at 1 µM value has been reported?
43.1

Suppose we examine the compound O=C(NCCCCCCCCCCCCN1CCN2CCCC2C1)c1cccnc1 (centres unmarked) ; what viability at 1 µM value has been reported?
42.4

Every entry's value here was drawn from patent US20260183274A1.
